# target-system: human PRMT1 (Homo sapiens)
# Construct: GST-tagged PRMT1; made in house; host or cells: High Five insect cells (baculovirus)
# procedure-summary: PRMT1 Biochemical Assay (3H-SAM Flashplate, peptide substrate)
# test-parameters: single experiment or average of multiple experiments
For each entry below, report its pIC50 value.
As a rule, pIC50 stands for the negative log10 of the concentration, concentration in M.

Please state recorded pIC50 (tested on human PRMT1 (Homo sapiens)) of CN(CCN)Cc1cn(CC(O)CO)nc1-c1ccc(F)cc1 (centres unmarked)
5.19

Please state recorded pIC50 (tested on human PRMT1 (Homo sapiens)) of CNCCN(C)Cc1cn(CCC(O)CO)nc1-c1ccc(F)cc1 (centres unmarked)
5.23

Please state recorded pIC50 (tested on human PRMT1 (Homo sapiens)) of `CN(CCN)Cc1c[nH]nc1-c1ccc(Cl)cc1F`
7.62

Please state recorded pIC50 (tested on human PRMT1 (Homo sapiens)) of `CC(C)Oc1ccc(-c2nn(C)cc2CN(C)CCN)cc1`
7.94

Please state recorded pIC50 (tested on human PRMT1 (Homo sapiens)) of `CNCCN(C)Cc1c[nH]nc1-c1ccc(OC2CCOCC2)c(Cl)c1`
7.56

###

For each entry below, report its pIC50 value.
# target-system: UniProt:Q9NR22
# Sequence (Q9NR22 whole entry): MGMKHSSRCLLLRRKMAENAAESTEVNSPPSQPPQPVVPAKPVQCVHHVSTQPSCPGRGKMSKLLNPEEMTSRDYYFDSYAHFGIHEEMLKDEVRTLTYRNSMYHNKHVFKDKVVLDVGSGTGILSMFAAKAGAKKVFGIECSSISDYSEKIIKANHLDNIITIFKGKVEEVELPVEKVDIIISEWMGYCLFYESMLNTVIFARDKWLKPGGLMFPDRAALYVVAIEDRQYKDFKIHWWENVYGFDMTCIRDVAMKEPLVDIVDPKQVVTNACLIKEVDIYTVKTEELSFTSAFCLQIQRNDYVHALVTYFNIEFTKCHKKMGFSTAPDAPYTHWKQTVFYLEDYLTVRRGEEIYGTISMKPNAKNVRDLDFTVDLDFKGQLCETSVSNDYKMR
# procedure-summary: PRMT8 Biochemical Assay (3H-SAM Flashplate, peptide substrate)
# test-parameters: single experiment or average of multiple experiments
# Excerpt: S-adenosylmethionine (SAM), S-adenosylhomocysteine (SAH), bicine, Tween20, dimethylsulfoxide (DMSO), bovine skin gelatin (BSG), isopropyl-β-D-thiogalactopyranoside (IPTG), and Tris(2-carboxyethyl)phosphine hydrochloride solution (TCEP) were purchased from Sigma-Aldrich at the highest level of purity possible. ^3H-SAM was purchase from American Radiolabeled Chemicals with a specific activity of 80 Ci/mmol. 384-well streptavidin Flashplates were purchased from PerkinElmer. […]
As a rule, pIC50 stands for the negative log10 of the concentration, concentration in M.

So what does the record say about pIC50 for `CCOC(=O)c1cccc(-c2n[nH]cc2CN(C)CCN)c1` ?
6.25

So what does the record say about pIC50 for `COCCn1cc(CN(C)CCN)c(-c2ccc(F)cc2)n1` ?
5.38

So what does the record say about pIC50 for `CNCCN(C)Cc1c[nH]nc1-c1cccc(OC(F)(F)F)c1` ?
6.22

So what does the record say about pIC50 for `Cc1cc(C#N)ccc1-c1n[nH]cc1CN(C)CCN` ?
6.27

So what does the record say about pIC50 for `CN(CCN)Cc1cn(C)nc1-c1ccc(F)cc1` ?
6.02

So what does the record say about pIC50 for `CN(CCN)Cc1c[nH]nc1-c1cccc(Cl)c1` ?
6.26

So what does the record say about pIC50 for `CN(CCN)Cc1n[nH]cc1-c1ccc(OC(F)F)cc1` ?
6.88

So what does the record say about pIC50 for `CNCCN(C)Cc1c[nH]nc1-c1cccc(OC)c1` ?
6.05

So what does the record say about pIC50 for `CN(CCN)Cc1c[nH]nc1-c1cccc(C#N)c1` ?
5.60

So what does the record say about pIC50 for `CNCCN(C)Cc1c[nH]nc1-c1ccc(-c2ccccc2)cc1` ?
7.04

###

# target-system: Human CARM1 (PRMT4) (Homo sapiens)
# Construct: Flag-CARM1-His; made in house; host or cells: HEK 293F cells (BacMam baculovirus)
# Sequence (Q86X55 1-585 isoform Q86X55-1): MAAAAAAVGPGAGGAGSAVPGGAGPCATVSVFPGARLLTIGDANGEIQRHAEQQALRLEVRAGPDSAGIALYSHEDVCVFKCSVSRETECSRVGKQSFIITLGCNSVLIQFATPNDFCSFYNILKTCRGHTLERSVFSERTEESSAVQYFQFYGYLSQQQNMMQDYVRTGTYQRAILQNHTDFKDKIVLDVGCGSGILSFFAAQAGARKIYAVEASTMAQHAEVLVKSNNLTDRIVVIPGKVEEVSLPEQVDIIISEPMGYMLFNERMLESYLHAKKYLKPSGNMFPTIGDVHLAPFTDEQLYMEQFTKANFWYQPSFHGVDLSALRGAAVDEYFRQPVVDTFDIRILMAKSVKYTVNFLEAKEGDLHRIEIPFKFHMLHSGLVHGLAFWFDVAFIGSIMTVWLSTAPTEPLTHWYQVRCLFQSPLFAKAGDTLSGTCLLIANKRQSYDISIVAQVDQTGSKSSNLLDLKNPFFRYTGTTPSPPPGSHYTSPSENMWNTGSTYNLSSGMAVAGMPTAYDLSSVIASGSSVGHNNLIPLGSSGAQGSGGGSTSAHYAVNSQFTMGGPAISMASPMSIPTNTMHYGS
# procedure-summary: CARM1 Biochemical Assay (3H-SAM Flashplate, peptide substrate)
# test-parameters: single experiment or average of multiple experiments
value-kind: pIC50
As a rule, pIC50 stands for the negative log10 of the concentration, concentration in M.

So what does the record say about pIC50 for CN(CCN)Cc1c[nH]nc1-c1cc(Cl)ccc1F [Compound 156] ?
5.17

So what does the record say about pIC50 for CCn1ncc(CN(C)CCNC)c1-c1ccc(F)cc1 [Compound 7] ?
5.57

So what does the record say about pIC50 for Cc1ccc(-c2n[nH]cc2CN(C)CCN)c(C)c1 [Compound 88] ?
5.28

###

# target-system: human PRMT6 (Homo sapiens, UniProt Q96LA8)
# Construct: Flag-PRMT6-His; made in house; host or cells: HEK 293F cells (BacMam baculovirus)
# Sequence (Q96LA8 with tags, fused parts or gaps): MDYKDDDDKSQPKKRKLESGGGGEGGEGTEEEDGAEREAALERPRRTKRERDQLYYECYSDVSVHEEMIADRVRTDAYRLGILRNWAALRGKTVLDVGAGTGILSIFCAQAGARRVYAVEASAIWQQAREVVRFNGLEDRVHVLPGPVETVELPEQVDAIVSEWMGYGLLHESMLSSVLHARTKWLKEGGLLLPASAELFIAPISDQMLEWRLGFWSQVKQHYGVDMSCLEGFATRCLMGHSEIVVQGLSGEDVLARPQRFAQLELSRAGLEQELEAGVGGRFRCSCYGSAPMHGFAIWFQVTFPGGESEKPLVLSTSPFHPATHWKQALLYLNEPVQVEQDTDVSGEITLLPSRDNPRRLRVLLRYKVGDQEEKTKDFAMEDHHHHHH
# procedure-summary: PRMT6 Biochemical Assay (3H-SAM Flashplate, peptide substrate)
# test-parameters: single experiment or average of multiple experiments; read-out: Biochemical IC50 PRMT6
For each entry below, report its log10 of IC50 value.
Friendly reminder: values = log10 of IC50, unit nM.

So what does the record say about log10 of IC50 for CCC(CO)Oc1ccc(-c2n[nH]cc2CN(C)CCNC)cc1 (centres unmarked) ?
1.39

So what does the record say about log10 of IC50 for `CNCCN(C)Cc1c[nH]nc1-c1ccccc1C(F)(F)F` ?
2.55

So what does the record say about log10 of IC50 for `CNCCN(C)Cc1c[nH]nc1-c1cccc(N)c1` ?
1.35

So what does the record say about log10 of IC50 for `CNCCN(C)Cc1cnn(C)c1-c1ccc(OC(C)C)c(Cl)c1` ?
1.36

So what does the record say about log10 of IC50 for `CNCCN(C)Cc1c[nH]nc1-c1ccccc1O` ?
2.66

So what does the record say about log10 of IC50 for `CNCCN(C)Cc1c[nH]nc1-c1ccc(CC#N)cc1` ?
1.05

So what does the record say about log10 of IC50 for `CNCCN(C)Cc1c[nH]nc1-c1ccc(OC)cc1OC` ?
1.94

So what does the record say about log10 of IC50 for `CNCCN(C)Cc1c[nH]nc1-c1ccccc1NS(C)(=O)=O` ?
3.91

###

For each entry below, report its log10 of IC50 value.
# target-system: human PRMT1 (Homo sapiens, UniProt Q99873)
# Construct: GST-tagged PRMT1; made in house; host or cells: High Five insect cells (baculovirus)
# Sequence (Q99873 with tags, fused parts or gaps): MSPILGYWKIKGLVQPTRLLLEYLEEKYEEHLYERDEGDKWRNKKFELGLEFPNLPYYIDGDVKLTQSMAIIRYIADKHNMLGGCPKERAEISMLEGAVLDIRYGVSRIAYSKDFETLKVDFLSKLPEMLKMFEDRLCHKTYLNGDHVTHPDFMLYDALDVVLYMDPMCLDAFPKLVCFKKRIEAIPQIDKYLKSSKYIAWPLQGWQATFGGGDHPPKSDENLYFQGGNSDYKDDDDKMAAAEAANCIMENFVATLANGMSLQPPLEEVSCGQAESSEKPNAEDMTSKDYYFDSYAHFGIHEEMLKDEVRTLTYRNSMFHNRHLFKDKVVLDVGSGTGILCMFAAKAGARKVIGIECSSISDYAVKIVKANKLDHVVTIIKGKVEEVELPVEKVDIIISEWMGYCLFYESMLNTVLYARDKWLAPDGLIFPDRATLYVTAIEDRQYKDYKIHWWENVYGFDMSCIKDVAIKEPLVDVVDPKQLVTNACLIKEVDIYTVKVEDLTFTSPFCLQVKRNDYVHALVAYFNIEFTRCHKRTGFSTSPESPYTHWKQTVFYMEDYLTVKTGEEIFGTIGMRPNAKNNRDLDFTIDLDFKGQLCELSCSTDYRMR
# procedure-summary: PRMT1 Biochemical Assay (3H-SAM Flashplate, peptide substrate)
# test-parameters: single experiment or average of multiple experiments
# Description: S-adenosylmethionine (SAM), S-adenosylhomocysteine (SAH), bicine, Tween20, dimethylsulfoxide (DMSO), bovine skin gelatin (BSG), and Tris(2-carboxyethyl)phosphine hydrochloride solution (TCEP) were purchased from Sigma-Aldrich at the highest level of purity possible. ^3H-SAM was purchase from American Radiolabeled Chemicals with a specific activity of 80 Ci/mmol. 384-well streptavidin Flashplates were purchased from PerkinElmer. […]
Friendly reminder: values = log10 of IC50, unit nM.

So what does the record say about log10 of IC50 for `CNCCN(C)Cc1c[nH]nc1-c1ccc(C(=O)c2ccccc2)cc1` ?
0.92

So what does the record say about log10 of IC50 for `CC(C)CN(C)C(=O)c1ccc(-c2n[nH]cc2CN(C)CCN)cc1` ?
2.03

So what does the record say about log10 of IC50 for `CNCCN(C)Cc1n[nH]cc1-c1ccc(Oc2ccccc2F)cc1` ?
0.54

So what does the record say about log10 of IC50 for `CN(CCN)Cc1c[nH]nc1-c1ccc(Oc2ccccc2)c(F)c1` ?
0.40

So what does the record say about log10 of IC50 for `CC(C)c1ccc(-c2c[nH]nc2CN(C)CCN)cc1` ?
1.31

###

# target-system: human PRMT6 (Homo sapiens, UniProt Q96LA8)
# Construct: Flag-PRMT6-His; made in house; host or cells: HEK 293F cells (BacMam baculovirus)
# procedure-summary: PRMT6 Biochemical Assay (3H-SAM Flashplate, peptide substrate)
# test-parameters: Biochemical IC50 PRMT6, single experiment or average of multiple experiments
value-kind: pIC50
As a rule, pIC50 stands for the negative log10 of the concentration, concentration in M.

Please state recorded pIC50 (tested on human PRMT6 (Homo sapiens, UniProt Q96LA8)) of CN(CCN)Cc1c[nH]nc1-c1ccc(Oc2ccc(F)cc2)cc1 [Compound 225]
8.88

Please state recorded pIC50 (tested on human PRMT6 (Homo sapiens, UniProt Q96LA8)) of CNCCN(C)Cc1c[nH]nc1-c1ccc(Oc2ccncn2)cc1 [Compound 312]
7.71

Please state recorded pIC50 (tested on human PRMT6 (Homo sapiens, UniProt Q96LA8)) of CNCCN(C)Cc1n[nH]cc1-c1cc(Cl)c(OC(C)C)c(Cl)c1 [Compound 273]
7.50

Please state recorded pIC50 (tested on human PRMT6 (Homo sapiens, UniProt Q96LA8)) of CNCCN(C)Cc1c[nH]nc1-c1ccc(Oc2cccc(C(=O)NC)c2)cc1 [Compound 263]
8.72

Please state recorded pIC50 (tested on human PRMT6 (Homo sapiens, UniProt Q96LA8)) of CN(CCN)Cc1cn(CC(O)CO)nc1-c1ccc(F)cc1 (stereo not drawn) [Compound 76]
5.56

Please state recorded pIC50 (tested on human PRMT6 (Homo sapiens, UniProt Q96LA8)) of Cc1ccc(F)cc1-c1n[nH]cc1CN(C)CCN [Compound 159]
7.56

Please state recorded pIC50 (tested on human PRMT6 (Homo sapiens, UniProt Q96LA8)) of CNCCN(C)Cc1n[nH]cc1-c1ccc(Oc2cccc(OC)c2)cc1 [Compound 239]
9.00

Please state recorded pIC50 (tested on human PRMT6 (Homo sapiens, UniProt Q96LA8)) of CN(CCN)Cc1c[nH]nc1-c1ccc(Oc2ccccc2)c(F)c1 [Compound 224]
8.70

Please state recorded pIC50 (tested on human PRMT6 (Homo sapiens, UniProt Q96LA8)) of CN(CCN)Cc1c[nH]nc1-c1ccc(C2CC2)cc1 [Compound 116]
8.14
